Method Notes: TD-6450 phase I clinical study (SAD/MAD): pharmacokinetics
Type: in vivo, human
Conditions Used: female, human, plasma, oral, 0.5 mg, Female subjects, SAD arm NCT02022306, Dose 0.50, 168 Hours; read-out: Concentration
Assay Readout: concentration at 168 h (ng/mL)
One number for each entry, in ng/mL.

Q) Look up concentration at 168 h: CNC(=O)N1C[C@@H](C)N(c2ccc(C(=O)Nc3ccc(-c4ccc(-c5c[nH]c([C@@H]6CCCN6C(=O)[C@@H](NC(=O)OC)C(C)C)n5)cc4)c(OC(F)(F)F)c3)cn2)C[C@@H]1C
A) 0

###

Method Notes: TD-6450 phase I clinical study (SAD/MAD): pharmacokinetics
Type: in vivo, human
Conditions Used: male, human, plasma, oral, 0.5 mg, Male subjects, SAD arm NCT02022306, Dose 0.50, 15 Minutes; read-out: Concentration
Assay Readout: concentration at 15 min (ng/mL)
One number for each entry, in ng/mL.

Q) Look up concentration at 15 min: CNC(=O)N1C[C@@H](C)N(c2ccc(C(=O)Nc3ccc(-c4ccc(-c5c[nH]c([C@@H]6CCCN6C(=O)[C@@H](NC(=O)OC)C(C)C)n5)cc4)c(OC(F)(F)F)c3)cn2)C[C@@H]1C
A) 0

###

Method Notes: TD-6450 phase I clinical study (SAD/MAD): pharmacokinetics
Assay type: in vivo, human
Conditions Used: female, human, plasma, oral, 5 mg, Female subjects, SAD arm NCT02022306, Dose 5.00, 4 Hours; read-out: Concentration
Assay Readout: concentration at 4 h (ng/mL)
Give bare numbers, in ng/mL.

Q) Look up concentration at 4 h: CNC(=O)N1C[C@@H](C)N(c2ccc(C(=O)Nc3ccc(-c4ccc(-c5c[nH]c([C@@H]6CCCN6C(=O)[C@@H](NC(=O)OC)C(C)C)n5)cc4)c(OC(F)(F)F)c3)cn2)C[C@@H]1C
A) 4.11

###

Method Notes: TD-6450 phase I clinical study (SAD/MAD): pharmacokinetics
Type: in vivo, human
Conditions Used: female, human, plasma, oral, 5 mg, Female subjects, SAD arm NCT02022306, Dose 5.00, 6 Hours; read-out: Concentration
Assay Readout: concentration at 6 h (ng/mL)
Answers are plain numbers, in ng/mL.

Q) Look up concentration at 6 h: CNC(=O)N1C[C@@H](C)N(c2ccc(C(=O)Nc3ccc(-c4ccc(-c5c[nH]c([C@@H]6CCCN6C(=O)[C@@H](NC(=O)OC)C(C)C)n5)cc4)c(OC(F)(F)F)c3)cn2)C[C@@H]1C [TD-6450]
A) 4.27

###

Method Notes: TD-6450 phase I clinical study (SAD/MAD): pharmacokinetics
Type: in vivo, human
Conditions Used: male, human, in vivo, TD-6450 concentration
Procedure: Primary and secondary outcomes were pre-defined as follows: Safety and tolerability as a primary outcome, pharmacokinetics as a secondary outcome. Safety and tolerability were evaluated using standard measures, including adverse event (AE) monitoring, clinical laboratory tests (hematology, serum chemistry, coagulation, and urinalysis), vital signs, physical examinations, and 12-lead electrocardiograms (ECGs). […] This study was conducted in two parts, Part A (SAD) and Part B (MAD). […]
Assay Readout: concentration at 168 h (ng/mL)
Give bare numbers, in ng/mL.

Q) Look up concentration at 168 h: CNC(=O)N1C[C@@H](C)N(c2ccc(C(=O)Nc3ccc(-c4ccc(-c5c[nH]c([C@@H]6CCCN6C(=O)[C@@H](NC(=O)OC)C(C)C)n5)cc4)c(OC(F)(F)F)c3)cn2)C[C@@H]1C
A) 12.2

Attribution: paper PMC10082216
